- SUBJECT OF TEST: T1, Recombinant Human FGFR2 alpha (IIIc) Fc Chimera Protein, CF (R&D systems, 712-FR-050) (human, UniProt P21802 22-377)
- T1 construct: bought; not shown: Fc part of the chimera
- PROTOCOL TEXT: ELISA on plate-bound FGFR2-Fc
Bridge positions count the residues as written; N and C are the ends. Ends that are not written are not given here. COCH2 = acetyl group that carries the bridge
I'd be grateful if you could share measured ELISA luminescence signal at 10 nmol/L peptide, relative to SEQ ID NO: 47 (=1) for these entries.

What value of ELISA luminescence signal at 10 nmol/L peptide, relative to SEQ ID NO: 47 (=1) has been reported for the following binder? YCEENMLDPEQYQYFIYFK(COCH2)Y (thioether 2-19) [cyclic peptide SEQ ID NO: 350]
≥ 0.7 ratio

What value of ELISA luminescence signal at 10 nmol/L peptide, relative to SEQ ID NO: 47 (=1) has been reported for the following binder? QCPQGFINPVQWRYFQHYK(COCH2)N (thioether 2-19) [cyclic peptide SEQ ID NO: 95]
0.1 to 0.5 ratio

What value of ELISA luminescence signal at 10 nmol/L peptide, relative to SEQ ID NO: 47 (=1) has been reported for the following binder? YCEENYLRPEQYQYFIYFK(COCH2)Y (thioether 2-19 (inferred)) [cyclic peptide SEQ ID NO: 219]
0.1 to 0.5 ratio
